Assignment: determine reported pIC50 for the given molecules.
- System: Neisseria gonorrhoeae
- assay-procedure: EC50 determination: plate-based broth growth assay (absorbance at 600 nm) of Neisseria gonorrhoeae
- Format: cell-based
- experimental-conditions: absorbance 600 nm after 20 hours at 37° C./5% CO2, read-out: IC50 (Inhibitory concentration) against Neisseria gonorrhoeae
pIC50: −log10 of the molar value.

State the recorded pIC50 for every item in the following list.
1. CC(=O)N(C)Cc1nnc(Nc2nc3cc(C(F)(F)F)ccc3o2)o1
2. Cc1nnc(Nc2nc3c(C)cccc3n2C)o1
3. FC(F)(F)c1ccc2oc(Nc3nc4cnccc4o3)nc2c1
4. Cc1nnc(Nc2nc3cc(C(F)(F)F)ccc3o2)n1C
5. CCOC(=O)c1nnc(Nc2nc3cc(C(F)(F)F)ccc3n2C)o1
6. Cn1ccc(Nc2nc3cc(C(F)(F)F)ccc3o2)n1
7. Clc1ccc2nc(Nc3ncno3)oc2c1
8. O=C(NC1CC1)c1csc(Nc2nc3cc(Cl)ccc3o2)n1

**Result**
≥ 5.00
≥ 5.00
≥ 7.00
≥ 6.00
≥ 6.00
≥ 5.00
≥ 4.00
≥ 6.00

State the recorded pIC50 for every item in the following list.
1. FC(F)(F)c1cc2oc(Nc3nnc(C4CC4)o3)nc2cn1
2. FC(F)(F)Oc1ccc2nc(Nc3nnco3)oc2c1

**Result**
["≥ 6.00", "≥ 7.00"]

State the recorded pIC50 for every item in the following list.
1. Cc1cc(Nc2nc3ccc(Cl)cc3o2)no1
2. COc1cc2oc(Nc3nnco3)nc2cc1C

**Result**
1: ≥ 6.00; 2: ≥ 6.00

====

- System: Neisseria gonorrhoeae
- assay-procedure: EC50 determination: plate-based broth growth assay (absorbance at 600 nm) of Neisseria gonorrhoeae
- Assay type: cell-based
- experimental-conditions: absorbance 600 nm after 20 hours at 37° C./5% CO2, read-out: IC50 (Inhibitory concentration) against Neisseria gonorrhoeae
pIC50: −log10 of the molar value. Where a name gives a salt, the structure may show the parent alone.
quantity-measured: pIC50

In [3]: df
Out[3]:
                                   compound            target_desc  quantity_measured   value
0                 Clc1cccc2oc(Nc3nnco3)nc12  Neisseria gonorrhoeae              pIC50  ≥ 6.00
1        Cn1c(Nc2nnco2)nc2cc(C(F)(F)F)ccc21  Neisseria gonorrhoeae              pIC50  ≥ 6.00
2  FC(F)(F)c1ccc2nc(Nc3ncc(N4CCNCC4)s3)oc2c1 [Example 49, hydrochloride]  Neisseria gonorrhoeae              pIC50  ≥ 6.00
3      COC(=O)c1ccc2[nH]c(Nc3nnc(C)o3)nc2c1  Neisseria gonorrhoeae              pIC50  ≥ 5.00

**Query** Give the measured pIC50 of `Oc1ccc2nc(Nc3nnco3)oc2c1` .
**Result** ≥ 5.00

====

Assignment: determine reported IC50 for the given molecules.
- System: Neisseria gonorrhoeae
- assay-procedure: EC50 determination: plate-based broth growth assay (absorbance at 600 nm) of Neisseria gonorrhoeae
- Type: cell-based
- experimental-conditions: absorbance 600 nm after 20 hours at 37° C./5% CO2, read-out: IC50 (Inhibitory concentration) against Neisseria gonorrhoeae

Below: 3 molecules and their reported IC50.
In [3]: df
Out[3]:
                                   molecule            target_desc  quantity_measured      value
0  COC1CCN(Cc2nnc(Nc3nc4cc(C(F)(F)F)ccc4o3)o2)C1 (stereo not shown) [Example 75]  Neisseria gonorrhoeae               IC50  ≤ 1000 nM
1  Clc1cc(Cl)c2nc(Nc3nnco3)oc2c1 [Example 45]  Neisseria gonorrhoeae               IC50   ≤ 100 nM
2  FC(F)(F)c1cc2nc(Nc3nnc[nH]3)oc2cc1Cl [Example 43]  Neisseria gonorrhoeae               IC50   ≤ 100 nM

State the recorded IC50 for every item in the following list.
1. Nc1ccc2nc(Nc3nnco3)oc2c1 [Example 195]
2. Cc1nnc(Nc2nc3ccc(F)cc3o2)o1 [Example 54]
3. CCOC(=O)c1nnc(Nc2nc3cc(C(F)(F)F)ccc3o2)o1 [Example 52]
4. FC(F)(F)c1ccc2oc(Nc3ccon3)nc2c1 [Example 11]
5. CN1CCc2oc(Nc3nc4cc(C(F)(F)F)ccc4o3)nc2C1 [Example 156]
6. Clc1ccc2nc(Nc3nnc(C4CC4)o3)oc2c1 [Example 175]
7. FC(F)(F)Oc1cc2oc(Nc3nnco3)nc2cc1Cl [Example 191]

**Result**
1: ≤ 10000 nM; 2: ≤ 1000 nM; 3: ≤ 1000 nM; 4: ≤ 1000 nM; 5: ≤ 1000 nM; 6: ≤ 100 nM; 7: ≤ 100 nM
